Tested on: Bacillus subtilis
Test: Antibacterial activity against Bacillus subtilis at 25 ug/ml incubated for 24 hrs by agar well diffusion method
Type: functional
Conditions: read-out: DIZ
Label Fulfilled when zone of inhibition at 25 µg/mL is at or above 10 mm; otherwise label Not fulfilled.

Study these solved cases before continuing.
>>> label_value("CC[C@H](C)[C@H](NC(=O)OC(C)(C)C)C(=O)Oc1ccc2c(=O)c3ccccc3oc2c1")
"Not fulfilled"
>>> label_value("CC(C)C[C@H](NC(=O)OC(C)(C)C)C(=O)Oc1ccc2c(=O)c3ccccc3oc2c1")
"Fulfilled"
>>> label_value("CC(C)[C@H](NC(=O)OC(C)(C)C)C(=O)Oc1ccc2c(=O)c3ccccc3oc2c1")
"Not fulfilled"
>>> label_value("Cl.N[C@@H](CS)C(=O)Oc1ccc2c(=O)c3ccccc3oc2c1")
"Fulfilled"
>>> label_value("CC(C)C[C@H](N)C(=O)Oc1ccc2c(=O)c3ccccc3oc2c1.Cl")
"Fulfilled"
>>> label_value("CC(C)(C)OC(=O)N1CCC[C@H]1C(=O)Oc1ccc2c(=O)c3ccccc3oc2c1")
"Fulfilled"

zone of inhibition at 25 µg/mL >= 10 mm for C[C@H](NC(=O)OC(C)(C)C)C(=O)Oc1ccc2c(=O)c3ccccc3oc2c1 ? Not fulfilled

zone of inhibition at 25 µg/mL >= 10 mm for CC(C)(C)OC(=O)N[C@@H](Cc1ccc(O)cc1)C(=O)Oc1ccc2c(=O)c3ccccc3oc2c1 ? Fulfilled
